- assay summary: yeast display, Sf9 membrane polyspecificity reagent, FACS + sequencing; frameworks hold sequencing errors
quantity: polyreactivity (PSR sort gate)

QVQLVESGGGLVQAGGSLRLSCAASGRIFKLYAMGWYRQAPGKERELVAAISTSAGSTNYADSVKGRFTISRDNSKNTVYLQMNSLKPEDTAVYYCAVAGVSTYYTYYYWGQGTQVTVSS ... low polyreactivity
QVQLVESGGGLGQAVGRLRLSCAASGSTFDPNTMGWYRQAPGKERELVATITSVDSTNYADSVKGRFTISRDNAKNTVYLQMNSLKPEDTAVSYCNAAYGGVFFYAYDYWGQGTQVTVSS ... low polyreactivity

---

- assay summary: yeast display, Sf9 membrane polyspecificity reagent, FACS + sequencing; frameworks hold sequencing errors
quantity: polyreactivity (PSR sort gate)

// worked examples, polyreactivity (PSR sort gate) included
QVQLVESGGGLVQAGGSLPLSCAASGSTLSGYAMGWYRQAPGKEREMVAAITKSGGRTYYADSVKGRFTISRDNAKNTVYLQMNSLKPEDTAVYYCAKAYPGTYREYDYWGQGTQVTVSS ... high polyreactivity
QVQLVESGGGLVQAGGSLRLSCAASGSIFEPYVMGWYRQAPGKERELVAVITSGSGRTYYADSVKGRFTISRDNAKNTVYLQMNSLKPEDTAVYYCNKAYLGYRYDLYDYWGQGTQVTVSS ... low polyreactivity
QVQLVESGGGLVQAGGSLRLSCAASGITFLYYAMGRYRPAPGKERELVAAITGDGSTTYADSVKGRFTISRDNAKNTVYLQMNSLKPEDTAGYYCAADDQYYGDGFWGQGTQLTVSS ... high polyreactivity
QVQLVESGGGLVQAGGSLRLSCAASGSTFRRNAMGWDRQAPGKERELVATISPGARTNYADSVKGRFTISRDNAKNTVYLQMNSLKPEDTAVYYCNAEYTLLYPLYDYWGQGTQVTVSS ... low polyreactivity

Please turn your attention to the following entry.
Data request, read-out polyreactivity (PSR sort gate), for QVQLVESGGGLVQAGGSLRLSCAASGRIFGAYAMGWYRQAPWKERELVAAITSRGGNTYYADSVKGRFTISRDNAKNTVYLQMNSLKPEDTAVYYCAARHDKRRQYYVGQSAFDYWGQGTQVTVSS
low polyreactivity
